Test system: RARb:RXRa (NR concentration 270 nM, RXRa partner concentration 90 nM)
Assay: PBM binding z-score (relative to random genomic background probes); higher = stronger binding; sequences stand for … in GC…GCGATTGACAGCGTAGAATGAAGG
The following ranges of PBM binding z-score define the classes used here: L: < 1; M: ≥ 1 and < 4; H: ≥ 4

1) GCAGACAGGTGAAACGCAGGTAACTAAGGGTGGC
L
2) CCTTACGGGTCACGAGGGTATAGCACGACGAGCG
H
3) GCAGACAGCTGAAACGCAGGTAACTCAGGGTGGC
L
4) GAAACAGGGTCAAGGCCAGAGTACGCGTATTGAT
H
5) TCATATAGGTAATACAGGTGACAGTCGGCATCTA
L
6) ATATGTAGGTTACATCCGGATCATTCAGGCTATG
M
7) TAGCCTAGGTCATGCGGGCCAGTGTAGTGTCGGC
M
8) GATACAGGGTCAAGTCCAGAGTACGCGTATTGAT
H
9) ACTTACGGGTCAACGAGGATATAGCACGCGTATA
M
10) CCTAGTTGGTCAAGGTCACAGACGCTATAGGTAC
H
11) AGCATGAGGTTATTAAGATCAGGGAATTGCGGTC
M

----------
Property: PBM binding z-score; scope: individual sequences
Tested on: PXR homodimer (NR concentration 270 nM)
Experiment: PBM binding z-score (relative to random genomic background probes); higher = stronger binding; sequences stand for … in GC…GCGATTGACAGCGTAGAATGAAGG
Assay Endpoint: PBM binding z-score

1) TGAATGAGGTTACAAGATCAGGGAACGTTGCAAA
-0.231
2) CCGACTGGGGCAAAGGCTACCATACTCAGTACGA
-0.267
3) TCTATTATTTGAAGGGCAACCGACGAGTCCGTTT
1.48
4) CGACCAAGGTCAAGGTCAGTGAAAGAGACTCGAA
0.777
5) TAGCCTAGGTCATGCGGGCTAGTATAGTGTCGGC
-0.632
6) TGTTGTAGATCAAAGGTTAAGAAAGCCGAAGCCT
0.18
7) TCATATAGGTATAAGGTGAAAGTCGGTGTGGTAA
0.866
8) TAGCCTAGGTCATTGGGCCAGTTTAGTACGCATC
-0.11
9) TCTAGTTGGTCAAAGGTCACACTCTCGAAATGCG
1.74
10) CGTCCATGGTCAAAGGTCAGTGAAGAGATGACGG
0.407
11) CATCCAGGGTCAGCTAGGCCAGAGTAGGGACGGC
-0.182
12) CAAACTAGGTCAAGGTTAAAGTCGGTTTGTGCCA
0.428
13) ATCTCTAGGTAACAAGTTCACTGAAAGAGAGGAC
2.82
14) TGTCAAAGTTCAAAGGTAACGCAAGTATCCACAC
4.47
15) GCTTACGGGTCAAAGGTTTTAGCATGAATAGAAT
0.129
16) CCTACTGGGCCTTTCAGAGGTCATTGATCATATG
2.5
17) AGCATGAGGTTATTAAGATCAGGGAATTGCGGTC
0.786
18) CGAACCAGGTCATTGACAGGACAGTGAATAGTAA
0.75
19) TCGAGTAGGGTAGTCGGGGCATTCAGCCAACATA
-0.394
20) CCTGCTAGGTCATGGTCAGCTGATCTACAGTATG
-0.463
21) TAGCCTAGGTCACGCGGGCCAGTATAGTGTCGGC
-0.691
22) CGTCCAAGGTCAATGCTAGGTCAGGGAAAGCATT
0.675
23) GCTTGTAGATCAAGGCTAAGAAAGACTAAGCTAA
-0.42
24) TTGCCTAGGTCATTCAGGGGCCAGTATAGAAAGC
0.107
25) ATATGTAGGTTAGCTGGGGTGATTCAGACTAGGC
0.409
26) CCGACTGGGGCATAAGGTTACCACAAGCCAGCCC
-0.315
